Where these numbers come from: patent EP0048159A2

Give IC50 for every item shown.
Biological target: Human plasma ACE (Homo sapiens)
Construct: Human plasma ACE was assayed in 0.05 M Hepes buffer, pH 8.0
Sequence (P12821 30-1232 limits assumed): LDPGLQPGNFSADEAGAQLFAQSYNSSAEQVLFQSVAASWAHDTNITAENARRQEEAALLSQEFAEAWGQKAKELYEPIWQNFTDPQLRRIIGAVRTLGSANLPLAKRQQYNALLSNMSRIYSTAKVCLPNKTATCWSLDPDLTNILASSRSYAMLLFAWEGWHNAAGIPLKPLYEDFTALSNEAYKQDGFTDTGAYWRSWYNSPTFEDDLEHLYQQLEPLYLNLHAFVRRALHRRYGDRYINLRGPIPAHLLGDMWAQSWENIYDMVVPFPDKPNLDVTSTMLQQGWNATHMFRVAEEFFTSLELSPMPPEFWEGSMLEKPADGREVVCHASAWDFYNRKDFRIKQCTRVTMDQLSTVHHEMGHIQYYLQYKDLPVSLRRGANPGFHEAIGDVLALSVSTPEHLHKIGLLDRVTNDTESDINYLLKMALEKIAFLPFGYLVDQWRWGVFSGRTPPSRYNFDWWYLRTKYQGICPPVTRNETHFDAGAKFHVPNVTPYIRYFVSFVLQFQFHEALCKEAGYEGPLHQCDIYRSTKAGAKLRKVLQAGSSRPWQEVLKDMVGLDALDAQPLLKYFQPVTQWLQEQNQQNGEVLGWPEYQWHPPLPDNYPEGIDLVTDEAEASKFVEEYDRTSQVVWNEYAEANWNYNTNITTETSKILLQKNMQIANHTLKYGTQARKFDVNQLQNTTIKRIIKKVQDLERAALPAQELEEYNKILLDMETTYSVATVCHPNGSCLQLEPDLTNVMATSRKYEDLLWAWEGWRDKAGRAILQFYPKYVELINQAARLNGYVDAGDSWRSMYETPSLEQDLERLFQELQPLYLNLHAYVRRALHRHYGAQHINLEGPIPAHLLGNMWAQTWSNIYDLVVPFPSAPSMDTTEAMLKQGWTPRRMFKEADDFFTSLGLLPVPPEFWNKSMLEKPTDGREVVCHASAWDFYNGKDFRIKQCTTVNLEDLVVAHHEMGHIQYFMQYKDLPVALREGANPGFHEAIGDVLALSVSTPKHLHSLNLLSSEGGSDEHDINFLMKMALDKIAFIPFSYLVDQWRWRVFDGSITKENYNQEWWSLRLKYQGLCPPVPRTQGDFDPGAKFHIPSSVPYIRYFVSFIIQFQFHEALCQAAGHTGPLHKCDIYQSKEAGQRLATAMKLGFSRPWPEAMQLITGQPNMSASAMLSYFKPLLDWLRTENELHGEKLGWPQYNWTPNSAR
Experiment: Inhibitory potency in vitro: ACE assay with [3H]hippuryl-His-Leu substrate
Conditions: hippuryl-His-Leu 1 x 10^-4 M, 0.05 M Hepes buffer pH 8.0, 15 minutes at 37°C, read-out: I50
Provide the measurement as a number trailed by its unit.

// below: answered compounds
| compound | reportedMeasurement |
| --- | --- |
| CC(N[C@@H](C)C(=O)N1CCC[C@H]1C(=O)O)C(=O)O (stereo partly drawn) [N-(1-carboxyethyl)-L-alanyl-L-proline, reference compound] | 8 nM |
| CC(SC[C@@H](C)C(=O)N1CCC[C@H]1C(=O)O)C(=O)O (stereo partly drawn) | 1500 nM |
| CCOC(=O)C(C)N[C@@H](C)C(=O)N1CCC[C@H]1C(=O)O (stereo partly drawn) | 60 nM |
| CC(SC(C)C(=O)N1CCC[C@H]1C(=O)O)C(=O)O (stereo partly drawn) | 400 nM |
| CC1CC(SC(C)C(=O)N2CCC[C@H]2C(=O)O)C(=O)O1 (stereo partly drawn) | 130 nM |

In the following, a different compound is considered.
Prompt line: // Input: CC(O)CC(SC(C)C(=O)N1CCC[C@H]1C(=O)O)C(=O)O (stereo partly drawn) . Output its IC50 only.
Response line: 30 nM
